Source: patent US20160185837A1

target: mouse GLP-1 receptor (mouse) (UniProt O35659); assay: cell-based or functional assay
Sequence (O35659 22-463): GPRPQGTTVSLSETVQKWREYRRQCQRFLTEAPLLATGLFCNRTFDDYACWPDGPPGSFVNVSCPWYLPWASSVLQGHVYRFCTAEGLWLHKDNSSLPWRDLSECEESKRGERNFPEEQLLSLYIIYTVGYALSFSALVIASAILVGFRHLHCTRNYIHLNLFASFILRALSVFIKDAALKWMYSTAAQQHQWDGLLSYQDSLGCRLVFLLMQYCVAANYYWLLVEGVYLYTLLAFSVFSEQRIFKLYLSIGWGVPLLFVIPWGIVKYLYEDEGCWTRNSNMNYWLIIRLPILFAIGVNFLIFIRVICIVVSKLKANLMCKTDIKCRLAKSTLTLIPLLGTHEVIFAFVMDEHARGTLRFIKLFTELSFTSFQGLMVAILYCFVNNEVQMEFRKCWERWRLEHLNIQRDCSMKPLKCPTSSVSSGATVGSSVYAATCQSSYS
Would you please tag the item fulfilled when its cAMP EC50 is 0.3 nM or above, and not fulfilled when it is below?

Would you please look over these solved cases?
- binder: "IP394 (Fc fusion) YSEGMHTSDLSKLLERQAIDEFIAWLLKGGAAAGGSGSTASSGSGSATGGGGAATHTCPPC"
  category: "fulfilled"
- binder: "IP367 (Fc fusion) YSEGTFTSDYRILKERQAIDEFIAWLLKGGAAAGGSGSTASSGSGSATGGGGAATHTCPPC"
  category: "fulfilled"
- binder: "IP369 (Fc fusion) YSEGTFTSDYSKLLERQAIDEFIAHLLKGGGGGGGSGGGGSGGGGSGGGGSGGGGSGGGGSA"
  category: "not fulfilled"
- binder: "IP346 (Fc fusion) YSEGTFTSDYSKLLERQAIDEFIAFLLKGGGGGGGSGGGGSGGGGSGGGGSGGGGSGGGGSA"
  category: "not fulfilled"

Switching to the query record.
Quick check, cAMP EC50 >= 0.3 nM? IP375 (Fc fusion) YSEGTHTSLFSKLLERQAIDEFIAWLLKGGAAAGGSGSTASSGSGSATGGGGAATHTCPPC
fulfilled
